- test settings: [M+H]+; instrument: TW; Major Mix IMS/Tof Calibration Kit (Waters)
Provide the reported collision cross section (N2) of each item.
Unit Å² implied. Number only.

Just so you know, measured collision cross section (N2) for CCOC(=O)C(c1ccccc1)C1CCCCN1 (configuration not stated) [Ethylphenidate] came out at 159.5

Just so you know, measured collision cross section (N2) for CN(C)C(=O)Oc1cc(OC(=O)N(C)C)cc(C(O)CNC(C)(C)C)c1 (configuration not stated) came out at 189.7

Just so you know, measured collision cross section (N2) for COc1ccc2c3c1O[C@H]1C(=O)CC[C@@]4(O)[C@@H](C2)N(C)CC[C@]314 came out at 168.3

Just so you know, measured collision cross section (N2) for CCOC(=O)CC(SP(=S)(OC)OC)C(=O)OCC (configuration not stated) came out at 165.9

Just so you know, measured collision cross section (N2) for CC1Cc2ccccc2N1NC(=O)c1ccc(Cl)c(S(N)(=O)=O)c1 (configuration not stated) [Indapamide] came out at 185.6

Just so you know, measured collision cross section (N2) for Cc1nc2n(c(=O)c1CCN1CCC(c3noc4cc(F)ccc34)CC1)CCCC2 came out at 205.5

Just so you know, measured collision cross section (N2) for CC(C)(C(=O)O)c1ccc(C(O)CCCN2CCC(C(O)(c3ccccc3)c3ccccc3)CC2)cc1 (configuration not stated) [Fexofenadine] came out at 226.9

====

- test settings: [M+Na]+; instrument: DT; single field, calibrated with Agilent tune mix (Agilent)
test readout: collision cross section (N2)

Just so you know, measured collision cross section (N2) for CCCCCCCCCCCCC=CC[C@@H](O)[C@H](CO)NC(=O)CCCCCCCCCCCCCCCCCCCCCCCCC came out at 285 Å²

Just so you know, measured collision cross section (N2) for CCCCCCCC/C=C\CCCCCCCCCC(=O)O[C@H](COC(=O)CCCCCCCCCCCCC)COP(=O)(O)O came out at 268.5 Å²

Just so you know, measured collision cross section (N2) for CCCC/C=C\C/C=C\CCCCCCCC(=O)OC[C@H](COP(=O)(O)OCCN)OC(=O)CCCCCCC/C=C\CCCCCCCCC came out at 279.9 Å²

Just so you know, measured collision cross section (N2) for CCCCC/C=C\C/C=C\CCCCCCCCCC(=O)O[C@H](COC(=O)CCCCCCCCCCCCCCC)COP(=O)(O)OCCN came out at 284.6 Å²

Just so you know, measured collision cross section (N2) for CCCCC/C=C\C/C=C\CCCCCCCCCCCC(=O)O[C@H](COC(=O)CCCCCCC/C=C\C/C=C\CCCCC)COP(=O)(O)OCCN came out at 293.3 Å²

Just so you know, measured collision cross section (N2) for CCCCC/C=C\C/C=C\C/C=C\C/C=C\CCCCCC(=O)OC[C@H](COP(=O)(O)OC[C@@H](O)CO)OC(=O)CCCCCCC/C=C\CCCCCCCC came out at 295.2 Å²

====

Provide the reported collision cross section (N2) of each item.
- test settings: [M+H]+; instrument: TW
Please state the value followed by its unit.

Just so you know, measured collision cross section (N2) for C=C1C[C@@]23CC[C@H]4[C@@](C)(CCC[C@@]4(C)C(=O)O[C@@H]4O[C@H](CO)[C@@H](O)[C@H](O)[C@H]4O)[C@@H]2CC[C@]1(O[C@@H]1O[C@H](CO)[C@@H](O)[C@H](O[C@@H]2O[C@H](CO)[C@@H](O)[C@H](O)[C@H]2O)[C@H]1O[C@@H]1OC[C@@H](O)[C@H](O)[C@H]1O)C3 [Rebaudioside F] came out at 293.18 Å²

Just so you know, measured collision cross section (N2) for O=C(NC(=O)c1c(F)cccc1F)Nc1ccc(Cl)cc1 came out at 160.98 Å²

Just so you know, measured collision cross section (N2) for CC1=NNC(=O)N(/N=C/c2cccnc2)C1 came out at 150.71 Å²

Just so you know, measured collision cross section (N2) for c1ccc([C@H]2CN3CCSC3=N2)cc1 came out at 138.2 Å²

Just so you know, measured collision cross section (N2) for O=C(Nc1ccccc1-c1ccc(Cl)cc1)c1cccnc1Cl came out at 171.67 Å²

Just so you know, measured collision cross section (N2) for O=C(O)c1c(Cl)ccc2cc(Cl)cnc12 came out at 139.54 Å²

Just so you know, measured collision cross section (N2) for C=C1C[C@@]23CC[C@H]4[C@@](C)(CCC[C@@]4(C)C(=O)O[C@@H]4O[C@H](CO)[C@@H](O)[C@H](O)[C@H]4O)[C@@H]2CC[C@]1(O[C@@H]1O[C@H](CO)[C@@H](O)[C@H](O)[C@H]1O[C@@H]1O[C@H](CO)[C@@H](O)[C@H](O)[C@H]1O)C3 [Stevioside] came out at 269.64 Å²

====

Provide the reported collision cross section (N2) of each item.
- test settings: [M-2H]2-; instrument: TW; calibrated with phosphatidylcholines (ESI+) and phosphatidylethanolamines (ESI-), doubly charged cardiolipins calibrated with poly-DL-…
Unit Å² implied. Number only.

Just so you know, measured collision cross section (N2) for CCCCCC/C=C\CCCCCCCC(=O)OC(COC(=O)CCCCCCCCCCCCCCC)COP(=O)(O)OCC(O)COP(=O)(O)OCC(COC(=O)CCCCCCCCCCCCCCC)OC(=O)CCCCCCCC1CC1CCCCCC (stereo not given) came out at 399.77

Just so you know, measured collision cross section (N2) for CCCCCC/C=C\CCCCCCCC(=O)OCC(COP(=O)(O)OCC(O)COP(=O)(O)OCC(COC(=O)CCCCCCCC1CC1CCCCCCCC)OC(=O)CCCCCCC/C=C\CCCCCC)OC(=O)CCCCCCC/C=C\CCCCCCCC (stereo not given) came out at 409.28

Just so you know, measured collision cross section (N2) for CCCCCC/C=C\CCCCCCCC(=O)OC(COC(=O)CCCCCCCCCCCCCCC)COP(=O)(O)OCC(O)COP(=O)(O)OCC(COC(=O)CCCCCCCCCCCCCCC)OC(=O)CCCCCCC/C=C\CCCCCC (stereo not given) came out at 397

Just so you know, measured collision cross section (N2) for CCCCCC/C=C\CCCCCCCC(=O)OCC(COP(=O)(O)OCC(O)COP(=O)(O)OCC(COC(=O)CCCCCCC/C=C/CCCCCCCC)OC(=O)CCCCCCC/C=C\CCCCCC)OC(=O)CCCCCCC/C=C\CCCCCCCC (stereo not given) came out at 406.81

Just so you know, measured collision cross section (N2) for CCCCCCCC/C=C\CCCCCCCC(=O)OC(COC(=O)CCCCCCCCCCCCCCC)COP(=O)(O)OCC(O)COP(=O)(O)OCC(COC(=O)CCCCCCCC1CC1CCCCCCCC)OC(=O)CCCCCCCCCCCCCCC (stereo not given) came out at 408.93

====

- test settings: [M+2Na-H]+; instrument: DT; stepped-field
Provide the reported collision cross section (N2) of each item.
Unit Å² implied. Number only.

Just so you know, measured collision cross section (N2) for CCCCCCCC/C=C\CCCCCCCCCC(=O)O[C@H](COCCCCCCCCCCCCCCCC)COP(=O)(O)OCCN [PE(o36:01)] came out at 283.23

Just so you know, measured collision cross section (N2) for CC/C=C\C/C=C\C/C=C\C/C=C\C/C=C\C/C=C\CCC(=O)O[C@H](COCCCCCCCCCCCCCCCCCC)COP(=O)(O)OCCN [PE(o40:06)] came out at 288.19

Just so you know, measured collision cross section (N2) for CC/C=C\C/C=C\C/C=C\C/C=C\C/C=C\C/C=C\CCC(=O)O[C@H](COCCCCCCCCCCCCCCCC)COP(=O)(O)OCCN [PE(o38:06)] came out at 280.85

Just so you know, measured collision cross section (N2) for CC/C=C\C/C=C\C/C=C\C/C=C\C/C=C\C/C=C\CCC(=O)O[C@H](COC(=O)CCCCCCCCCCCCCCCCC)COP(=O)(O)O [PA(40:06)] came out at 280.58

Just so you know, measured collision cross section (N2) for CCCC/C=C\C/C=C\CCCCCCCC(=O)O[C@H](COCCCCCCCCCCCCCCCCCC)COP(=O)(O)OC[C@H](N)C(=O)O [PS(o35:02)] came out at 282.4

Just so you know, measured collision cross section (N2) for CC/C=C\C/C=C\C/C=C\C/C=C\C/C=C\C/C=C\CCC(=O)OC[C@H](COP(=O)(O)OC[C@H](N)C(=O)O)OC(=O)CCCCCCCCCCC/C=C\C/C=C\CCCCC [PS(44:08)] came out at 301.25

Just so you know, measured collision cross section (N2) for CCCCC/C=C\C/C=C\CCCCCCCCCCCC(=O)O[C@H](COC(=O)CCCCCCCCCCCCCCC)COP(=O)(O)OCCN [PE(38:02)] came out at 288.8

Just so you know, measured collision cross section (N2) for CCCCC/C=C\CCCCCCCC(=O)OC[C@H](COP(=O)(O)OCCN)OC(=O)CCCCCCCCCCCCCCCCCCCCC [PE(37:01)] came out at 286.74

Just so you know, measured collision cross section (N2) for CCCCC/C=C\C/C=C\CCCCCCCCCCCC(=O)O[C@H](COC(=O)CCCCCCCCCCCCCCCCCCC)COP(=O)(O)OC[C@H](N)C(=O)O [PS(42:02)] came out at 306.07

Just so you know, measured collision cross section (N2) for CCCCC/C=C\C/C=C\C/C=C\CCCCCCC(=O)OC[C@H](COP(=O)(O)OC[C@H](N)C(=O)O)OC(=O)CCCCCCCCCCC/C=C\C/C=C\CCCCC [PS(42:05)] came out at 300.15

Just so you know, measured collision cross section (N2) for CCCCCCCC/C=C\CCCCCCCCCC(=O)OC[C@H](COP(=O)(O)OC[C@H](N)C(=O)O)OC(=O)CCCCCCCCCCCCCCCCCCC [PS(40:01)] came out at 301.13

Just so you know, measured collision cross section (N2) for CCCCCCCCCC/C=C\CCCCCCCCCC(=O)O[C@H](COC(=O)CCCCCCCCCCCCCCC)COP(=O)(O)OC[C@H](N)C(=O)O [PS(38:01)] came out at 295.38

Just so you know, measured collision cross section (N2) for CCCCC/C=C\C/C=C\C/C=C\C/C=C\CCCCCC(=O)O[C@H](COC(=O)CCCCCCCCCCCCCCCC)COP(=O)(O)OC[C@H](N)C(=O)O [PS(39:04)] came out at 291.95

Just so you know, measured collision cross section (N2) for CC/C=C\C/C=C\C/C=C\C/C=C\CCCCC(=O)O[C@H](COC(=O)CCCCCCC/C=C\CCCCCCCC)COP(=O)(O)O [PA(36:05)] came out at 269.3

Just so you know, measured collision cross section (N2) for CC/C=C\C/C=C\C/C=C\C/C=C\CCCCC(=O)O[C@H](COC(=O)CCCCCCCCCCCCCCCCCCC)COP(=O)(O)OCCN [PE(38:04)] came out at 284.96

Just so you know, measured collision cross section (N2) for CCCCCCCC/C=C\CCCCCCCC(=O)OC[C@H](COP(=O)(O)OCCN)OC(=O)CCCCCCC/C=C\CCCCCCCCC [PE(37:02)] came out at 285.18

Just so you know, measured collision cross section (N2) for CCCCC/C=C\C/C=C\CCCCCCCC(=O)O[C@H](COCCCCCCCCCCCCCCCCCC)COP(=O)(O)OCCN [PE(o36:02)] came out at 280.9

Just so you know, measured collision cross section (N2) for CCCCC/C=C\C/C=C\C/C=C\C/C=C\CCCC(=O)O[C@H](COC(=O)CCCCCCCCC/C=C\CCCCCCCC)COP(=O)(O)OC[C@H](N)C(=O)O [PS(40:05)] came out at 297.17

Just so you know, measured collision cross section (N2) for CCCCC/C=C\C/C=C\C/C=C\CCCCC(=O)OC[C@H](COP(=O)(O)OC[C@H](N)C(=O)O)OC(=O)CCCCCCCCC/C=C\CCCCCCCCCC [PS(40:04)] came out at 298.27

Just so you know, measured collision cross section (N2) for CCCCCC/C=C\CCCCCCCC(=O)O[C@H](COCCCCCCCCCCCCCCCCCC)COP(=O)(O)OCCN [PE(o34:01)] came out at 276.22

Just so you know, measured collision cross section (N2) for CCCCCCCC/C=C\CCCCCCCC(=O)OC[C@H](COP(=O)(O)OC[C@H](N)C(=O)O)OC(=O)CCCCCCC/C=C\CCCCCCCC [PS(36:02)] came out at 285.97

Just so you know, measured collision cross section (N2) for CCCCC/C=C\C/C=C\C/C=C\CCCCC(=O)OC[C@H](COP(=O)(O)OCCN)OC(=O)CCCCCCCCCCC/C=C\C/C=C\CCCCC [PE(40:05)] came out at 289.53

Just so you know, measured collision cross section (N2) for CCCCCCCC/C=C\CCCCCCCC(=O)O[C@H](COC(=O)CCCCCCCCCCCCCCCCC)COP(=O)(O)OCCN [PE(36:01)] came out at 283.74
